Sourced from patent US12391674B2

System: DBA/2 mice
Assay Procedure: Audiogenic seizure model
Assay type: in vivo
Experimental Setup: Mus musculus; DBA/2 mice, oral, dose 5 mg/kg, auditory stimulation 1 hour after administration; read-out: Seizure suppression
Measure: inhibition in vivo at 5 mg/kg

Item Smiles	inhibition in vivo at 5 mg/kg
Fc1ccc(F)c(Oc2ncc(-c3ccc4nccn4c3)cn2)c1	> 90%
COc1ccc(-c2cnc(Oc3cccc(F)c3)nc2)nn1	> 90%
c1ccc(Oc2ncc(-c3ccncc3)cn2)cc1	> 90%
Fc1ccccc1Oc1ncc(-c2ccc3nccn3c2)cn1	> 90%
O=c1cnc2cc(-c3cnc(Oc4ccccc4)nc3)ccc2[nH]1	70 to 90%

Here is the next item to consider.
Ask: Query (compound): c1ccc(Oc2ncc(-c3ccc4cncn4c3)cn2)cc1 ; field requested: inhibition in vivo at 5 mg/kg
Reply: > 90%
